Lab note: Ki readings collected with Histamine H3 receptor (Rattus norvegicus, UniProt Q9QYN8) for the following compounds.
Sequence (Q9QYN8 whole entry): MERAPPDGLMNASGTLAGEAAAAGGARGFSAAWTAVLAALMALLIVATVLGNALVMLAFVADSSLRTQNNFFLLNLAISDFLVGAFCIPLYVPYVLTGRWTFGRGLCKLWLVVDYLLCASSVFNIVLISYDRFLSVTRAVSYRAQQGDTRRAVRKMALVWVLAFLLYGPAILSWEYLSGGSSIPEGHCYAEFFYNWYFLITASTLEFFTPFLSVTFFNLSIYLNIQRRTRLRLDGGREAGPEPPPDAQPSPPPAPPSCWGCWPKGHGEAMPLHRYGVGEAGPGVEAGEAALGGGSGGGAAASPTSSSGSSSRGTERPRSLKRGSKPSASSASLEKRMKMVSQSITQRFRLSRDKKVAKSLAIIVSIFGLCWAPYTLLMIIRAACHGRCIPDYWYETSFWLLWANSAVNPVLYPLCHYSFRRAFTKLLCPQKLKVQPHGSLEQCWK
experimentalReadout: Ki (nM)

moleculeSmiles | experimentalReadout | displayUnit | measured
Cc1nn(-c2ccsc2)c(=O)cc1-c1ccc(OC2CCN(C3CCC3)CC2)cc1 | Ki | nM | 8

a = Cc1cccnc1-n1nc(C)c(-c2ccc(OC3CCN(C4CCC4)CC3)cc2)cc1=O
b = Cc1nn(C)c(=O)cc1-c1ccc(OC2CCN(C3CCC3)CC2)cc1
Request: Lab notebook, comparison: a versus b , higher Ki goes to which? Field: selected label. Fill in the label of the entry you choose.
Result: a

###

- protocolText: AUC in rat at 5 mg/kg, po
- Type: ADME, organism-based
- Set-up: dose 5 mg/kg, route oral
- measurementSetup: plasma
experimentalReadout: AUC (µg·h/mL)

moleculeSmiles | measured
Cc1nn(-c2ccccn2)c(=O)cc1-c1ccc(OC2CCN(C3CCC3)CC2)cc1 | 1.5

I = Cc1cccc(-n2nc(C)c(-c3ccc(OC4CCN(C5CCC5)CC4)cc3)cc2=O)n1
II = Cc1cccnc1-n1nc(C)c(-c2ccc(OC3CCN(C4CCC4)CC3)cc2)cc1=O
Request: Which gives the smaller AUC number: I or II ? Field: selected label. Fill in the label of the entry you choose.
Result: I
(I: 1.27 µg·h/mL, II: 1.86 µg·h/mL)

Ref: ChEMBL document CHEMBL1944524
